# credit: patent US10947188B2

# Test system: HT-1080
# ASSAY COMMENT: Modulatory profiling: Alamar Blue viability, lethal compound cotreated with death modulator (EC50, AUC)
# Assay type: cell-based
# Set-up: unit not given beside the values
# ASSAY CONDITIONS: HT-1080, modulator ATA
RECORDED ENDPOINT: AUC HT.ATA

// below: answered compounds
COMPOUND	ENDPOINT RESULT
CC(C)=CCCC1=CCC(CNCCCN(C)C)C(C)C1 (centres unmarked)	0.06113
CC(C)[C@@H]1NC(=O)[C@H](C)OC(=O)[C@@H](C(C)C)NC(=O)[C@@H](C(C)C)OC(=O)[C@H](C(C)C)NC(=O)[C@H](C)OC(=O)[C@@H](C(C)C)NC(=O)[C@@H](C(C)C)OC(=O)[C@H](C(C)C)NC(=O)[C@H](C)OC(=O)[C@@H](C(C)C)NC(=O)[C@@H](C(C)C)OC1=O	0.04039
COc1ccc(N(C(=O)CCl)C(C(=O)NCCc2ccccc2)c2cccs2)cc1 (centres unmarked)	−0.03622
COC(=O)[C@@H]1Cc2c([nH]c3ccccc23)C(C)(C)N1C(=O)CCl	−0.05302
C=C(C)[C@H]1Cc2c(ccc3c2O[C@@H]2COc4cc(OC)c(OC)cc4[C@@H]2C3=O)O1	0.05899

For the next question, use this compound.
Request: Would you kindly share the measured AUC HT.ATA for COC(=O)c1ccc([C@@H]2c3[nH]c4ccccc4c3C[C@@H](C(=O)OC)N2C(=O)CCl)cc1 [RSL3, reference compound] ?
Result: −0.04539

* * *

# System: HT-1080
# ASSAY COMMENT: Modulatory profiling: Alamar Blue viability, lethal compound cotreated with death modulator (EC50, AUC)
# Format: cell-based
# ASSAY CONDITIONS: HT-1080, modulator CspA
RECORDED ENDPOINT: AUC HT.CspA
Enter the number alone.

// below: answered molecules
>>> print(df.to_string())
                                   molecule  study_target  endpoint_result
0  CC(/C=C/C(=O)NO)=C\[C@@H](C)C(=O)c1ccc(N(C)C)cc1 [TrichostatinA]       HT-1080          −0.1437
1  COc1cccc2c1C(=O)c1c(O)c3c(c(O)c1C2=O)C[C@@](O)(C(C)=O)C[C@@H]3O[C@H]1C[C@H](N)[C@H](O)[C@H](C)O1 [Daunorubicin]       HT-1080          −0.0792

Request: Would you kindly share the measured AUC HT.CspA for COC(=O)c1ccc([C@@H]2c3[nH]c4ccccc4c3C[C@@H](C(=O)OC)N2C(=O)CCl)cc1 [RSL3, reference compound] ?
Result: −0.1268

* * *

# Test system: BJeLR
# ASSAY COMMENT: Modulatory profiling: Alamar Blue viability, lethal compound cotreated with death modulator (EC50, AUC)
# Assay type: cell-based, human
# Design: unit not given beside the values
# ASSAY CONDITIONS: BJeLR cells; lethal compound cotreated with modulator Co2+; modulatory profile value (AUC)
Attribute: AUC, modulator BJ.Co2+

MOLECULE	STUDY TARGET	AUC, modulator BJ.Co2+
[N-]=[N+]=[N-].[Na+]	BJeLR	−0.02123
Cc1cc(C)c2c(=O)n(CC(=O)NCCCN3CCN(c4ccccc4F)CC3)sc2n1	BJeLR	−0.0178
CC[C@@]1(O)C(=O)OCc2c1cc1n(c2=O)Cc2cc3ccccc3nc2-1	BJeLR	0.02899

Request: Identify the measured AUC, modulator BJ.Co2+ of CCOC(=O)[C@@H]1[C@@H](c2ccccc2)C(=O)CCN1NC(=O)c1ccccc1 for BJeLR.
Result: 0.01721

Request: Identify the measured AUC, modulator BJ.Co2+ of Cc1[nH]c2c(ccc3ccccc32)c1C1C(CCN)C1(C)C (stereo not shown) for BJeLR.
Result: 0.2135

Request: Identify the measured AUC, modulator BJ.Co2+ of C=C(C)[C@H]1Cc2c(ccc3c2O[C@@H]2COc4cc(OC)c(OC)cc4[C@@H]2C3=O)O1 for BJeLR.
Result: 0.0838
